Taken from paper PMC6008489.

Quick list: inhibition at 100 µM per entry.
system-name: PKCζ (Homo sapiens, UniProt Q05513)
Construct: purchased Perkin Elmer (ProfilerPro assay kit 1)
Sequence (Q05513 1-592): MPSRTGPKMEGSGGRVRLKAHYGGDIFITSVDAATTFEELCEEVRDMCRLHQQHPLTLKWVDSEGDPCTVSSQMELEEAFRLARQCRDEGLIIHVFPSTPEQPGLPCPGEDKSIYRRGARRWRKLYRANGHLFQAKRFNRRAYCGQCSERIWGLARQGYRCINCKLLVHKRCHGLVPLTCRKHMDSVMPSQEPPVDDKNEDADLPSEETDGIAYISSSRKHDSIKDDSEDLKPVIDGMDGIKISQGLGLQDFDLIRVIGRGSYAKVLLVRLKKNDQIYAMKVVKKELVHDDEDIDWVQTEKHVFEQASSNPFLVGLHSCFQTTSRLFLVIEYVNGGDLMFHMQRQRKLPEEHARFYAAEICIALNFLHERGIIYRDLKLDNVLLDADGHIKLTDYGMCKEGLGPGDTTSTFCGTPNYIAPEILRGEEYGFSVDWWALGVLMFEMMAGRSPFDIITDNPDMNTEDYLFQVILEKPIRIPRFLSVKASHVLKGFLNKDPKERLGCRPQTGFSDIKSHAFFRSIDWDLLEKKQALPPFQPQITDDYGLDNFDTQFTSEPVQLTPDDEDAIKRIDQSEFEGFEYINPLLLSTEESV
measurement-description: 26-kinase panel mobility shift assay, single concentration
Assay type: biochemical
protocol-conditions: read-out: % Inhibition PKC
Your answer is read as %, so omit the unit and give the number.

mol_smiles=Nc1ccc[nH]c1=O endpoint_unit=% reported=27

Lookup: Please give the documented inhibition at 100 µM of COc1ncc(-c2ccncc2)cc1N
Found: 5

Lookup: Given CNc1nccc(-c2c[nH]c(=O)c(N)c2)n1 , respond with its inhibition at 100 µM.
Found: 37

Lookup: Check the records and state inhibition at 100 µM for Nc1cc(-c2ccnc3ccccc23)c[nH]c1=O
Found: 17

Lookup: Please give measured inhibition at 100 µM of the following entry: Cn1cc(-c2c[nH]c(=O)c(N)c2)cn1
Found: 83

Lookup: Note inhibition at 100 µM for the molecule shown: Nc1cc(-c2ccnc(NC3CC3)n2)c[nH]c1=O
Found: 0

Lookup: Quote inhibition at 100 µM reported for Cc1nc(O)c(N)cc1-c1ccncc1 please.
Found: 13
